- Subject Of Test: monoclonal antibody 7C11 (anti-Bla g 2)
- Sequence (chain, as listed by the source, chain 2 of 2, other chains not shown): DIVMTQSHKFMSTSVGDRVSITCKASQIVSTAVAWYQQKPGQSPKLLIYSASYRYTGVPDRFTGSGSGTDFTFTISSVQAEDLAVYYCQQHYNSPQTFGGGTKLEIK
- Method: competition ELISA
- Condition Info: chain shown with the change; competitor concentration 0.1 µg/ml; solid phase rBla g 2-N93Q; parent: est. 47; read off a plot
Property Measured: other: Biotinylated mAb 7C11 bound to Bla g 2 (%)
A number alone suffices; assume %.

Name the recorded other: Biotinylated mAb 7C11 bound to Bla g 2 (%) for recombinant Bla g 2-N93Q K65A (protein) VPLYKLVHVFINTQYAGITKIGNQNFLTVFDSTSCNVVVASQECVGGACVCPNLQKYEKLKPAYISDGNVQVKFFDTGSAVGRGIEDSLTISQLTTSQQDIVLADELSQEVCILSADVVVGIAAPGCPNALKGKTVLENFVEENLIAPVFSIHHARFQDGEHFGEIIFGGSDWKYVDGEFTYVPLVGDDSWKFRLDGVKIGDTTVAPAGTQAIIDTSKAIIVGPKAYVNPINEAIGCVVEKTTTRRICKLDCSKIPSLPDVTFVINGRNFNISSQYYIQQNGNLCYSGFQPCGHSDHFFIGDFFVDHYYSEFNWENKTMGFGRSVESV .
91
